Assay System: CYP3A4 (Homo sapiens, UniProt P08684)
Construct: The full-length protein was used for assays and the truncated form was used for crystallization; made in house
Sequence (P08684 whole entry, the tested form may be a part): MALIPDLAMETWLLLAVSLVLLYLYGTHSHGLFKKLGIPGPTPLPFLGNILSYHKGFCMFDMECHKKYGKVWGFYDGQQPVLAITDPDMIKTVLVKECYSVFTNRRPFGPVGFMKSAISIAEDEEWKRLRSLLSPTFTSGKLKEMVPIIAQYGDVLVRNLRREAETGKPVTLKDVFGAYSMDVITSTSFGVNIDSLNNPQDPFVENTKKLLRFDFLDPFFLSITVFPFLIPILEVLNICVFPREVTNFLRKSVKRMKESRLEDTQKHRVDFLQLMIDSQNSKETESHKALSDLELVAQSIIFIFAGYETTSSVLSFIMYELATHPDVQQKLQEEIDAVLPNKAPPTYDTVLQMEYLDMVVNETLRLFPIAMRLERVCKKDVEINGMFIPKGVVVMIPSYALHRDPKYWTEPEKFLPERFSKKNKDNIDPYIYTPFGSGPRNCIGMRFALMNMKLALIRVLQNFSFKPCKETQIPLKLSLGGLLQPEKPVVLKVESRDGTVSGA
Measurement Description: Spectral binding titrations (equilibrium ligand binding, type II spectral change)
Particulars: ratio between absorption maxima of ferric ligand-bound and ligand-free CYP3A4
Observed Property: A421/417
Lab note: jot down the number only; don't add units.

Completed entries (count: 5):
>  <Compound>
CC(C)(C)OC(=O)N[C@H](CS[C@H](Cc1ccccc1)C(=O)NCC(=O)Nc1cccnc1)Cc1ccccc1

>  <A421/417>
0.99

$$$$
>  <Compound>
O=C(N[C@H](CS[C@H](Cc1ccccc1)C(=O)NCCCc1cccnc1)Cc1ccccc1)c1cccnc1 [Compound 10a]

>  <A421/417>
1.11

$$$$
>  <Compound>
CC(C)(C)OC(=O)N[C@H](CS[C@H](Cc1ccccc1)C(=O)NCc1ccncc1)Cc1ccccc1

>  <A421/417>
1.07

$$$$
>  <Compound>
O=C(Cc1cccnc1)N[C@H](CS[C@H](Cc1ccccc1)C(=O)NCc1cccnc1)Cc1ccccc1

>  <A421/417>
1.03

$$$$
>  <Compound>
CC(C)(C)OC(=O)N[C@H](CS[C@H](Cc1ccccc1)C(=O)NCCc1ccncc1)Cc1ccccc1

>  <A421/417>
1.06

$$$$

Recall the reported A421/417 of O=C(CNC(=O)c1cccnc1)N[C@H](CS[C@H](Cc1ccccc1)C(=O)NCCCc1cccnc1)Cc1ccccc1 [Compound 10b] on CYP3A4 (Homo sapiens, UniProt P08684) and write it down. 1.10

Look up CYP3A4 (Homo sapiens, UniProt P08684) data: A421/417 of O=C(CCc1cccnc1)N[C@H](CS[C@H](Cc1ccccc1)C(=O)NCCc1cccnc1)Cc1ccccc1 , then report it. 1.03

* * *

Overview of recorded ΔAmax for various compounds
Assay System: CYP3A4 (Homo sapiens, UniProt P08684)
Construct: The full-length protein was used for assays and the truncated form was used for crystallization; made in house
Measurement Description: Spectral binding titrations (equilibrium ligand binding, type II spectral change)
Particulars: maximal absorbance change (peak-to-trough in difference spectrum) relative to that induced by ritonavir
Number in %, nothing else.

Please review the following examples before continuing.
>  <Compound>
CC(C)(C)OC(=O)N[C@H](CS[C@H](Cc1ccccc1)C(=O)NCc1ccncc1)Cc1ccccc1 [Compound 5a]

>  <ΔAmax (%)>
105

$$$$
>  <Compound>
CC(C)(C)OC(=O)N[C@H](CS[C@H](Cc1ccccc1)C(=O)NCC(=O)Nc1cccnc1)Cc1ccccc1 [Compound 4]

>  <ΔAmax (%)>
98

$$$$
>  <Compound>
O=C(CCc1cccnc1)N[C@H](CS[C@H](Cc1ccccc1)C(=O)NCCc1cccnc1)Cc1ccccc1 [Compound 8b]

>  <ΔAmax (%)>
109

$$$$
>  <Compound>
O=C(Cc1cccnc1)N[C@H](CS[C@H](Cc1ccccc1)C(=O)NCc1cccnc1)Cc1ccccc1 [Compound 8a]

>  <ΔAmax (%)>
96

$$$$

State recorded ΔAmax with CYP3A4 (Homo sapiens, UniProt P08684), entry O=C(N[C@H](CS[C@H](Cc1ccccc1)C(=O)NCCCc1cccnc1)Cc1ccccc1)c1cccnc1 [Compound 10a] , no comment. 111

Name the value of ΔAmax reported for CC(C)(C)OC(=O)N[C@H](CS[C@H](Cc1ccccc1)C(=O)NCCc1ccncc1)Cc1ccccc1 [Compound 5b] when tested on CYP3A4 (Homo sapiens, UniProt P08684). 126

Give ΔAmax for this entry on CYP3A4 (Homo sapiens, UniProt P08684): O=C(CNC(=O)c1cccnc1)N[C@H](CS[C@H](Cc1ccccc1)C(=O)NCCCc1cccnc1)Cc1ccccc1 [Compound 10b] 110

These measurements were taken from paper PMC9266530.
